target_of_assay: T1, 4H908-bN
T1 chain: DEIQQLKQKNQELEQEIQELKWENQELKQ
assay_notes: two-hybrid library CCNG1;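 note: natural log of median RNA to DNA barcode read ratio; higher means stronger binding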

{"binder": "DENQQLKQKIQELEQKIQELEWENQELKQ [4H1828-bN]", "interaction score": -1.28}
{"binder": "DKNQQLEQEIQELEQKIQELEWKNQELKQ [4H3112-bN]", "interaction score": 0.308}
{"binder": "DEIAQLKQENAELKQKNAELEWEIAQLKQ [4H754-bA]", "interaction score": -0.94}
{"binder": "DEIQQLKQKIQELEQENQELKWKIQELEQ [4H797-bN]", "interaction score": -0.753}
{"binder": "DEIQQLKQKIQELKQKNQELEWENQELEQ [4H883-bN]", "interaction score": -1.19}
